Parameter Potency: see the listing below.
assay: qHTS profiling for inhibitors of Plasmodium falciparum proliferation (AID 504749); also: potency is read from the fitted curve at half-maximal effect; nearly all actives have a fitted effect of over 60% in size; settings: P. falciparum in erythrocytes, SYBR Green DNA, 72 h; parasite line B
Inconclusive results are not listed. The source made the active and inactive calls. Calls follow the shape of the dose curve; as a rule, active = well fitted inhibition curve with a large enough effect; inconclusive = small, poorly fitted or top-dose-only effect; inactive = flat fitted curve, though single readings scatter.
Quantity Measured: Potency

compound="COC(=O)C1=C(C)NC(C)=C(C(=O)OCCCN2CCC(c3ccccc3)(c3ccccc3)CC2)C1c1cccc([N+](=O)[O-])c1 (stereo unspecified)" quantity_measured=Potency reading="6.31 µM (active)"
compound=CCc1nc(N)nc(N)c1-c1ccc(Cl)cc1 quantity_measured=Potency reading="3.16 µM (active)"
compound=CCCCCCCCOc1ccccc1C(=O)Nc1ccc(C(=O)OCC[N+](C)(CC)CC)cc1 quantity_measured=Potency reading="10 µM (active)"
compound="CCCCN(CCCC)CCC(O)c1cc2c(Cl)cc(Cl)cc2c2cc(C(F)(F)F)ccc12 (stereo unspecified)" quantity_measured=Potency reading="0.0056 µM (active)"
compound=Cc1ccc(NC(=O)c2ccc(CN3CCN(C)CC3)cc2)cc1Nc1nccc(-c2cccnc2)n1 quantity_measured=Potency reading="11.2 µM (active)"
compound=Cc1cccc(C)c1OCC(=O)N[C@@H](Cc1ccccc1)[C@@H](O)C[C@H](Cc1ccccc1)NC(=O)[C@H](C(C)C)N1CCCNC1=O quantity_measured=Potency reading="5.01 µM (active)"
compound=CN(C)c1ccc2nc3ccc(=[N+](C)C)cc-3sc2c1 quantity_measured=Potency reading="0.0631 µM (active)"
compound="CCN(CCO)CCCC(C)Nc1ccnc2cc(Cl)ccc12 (stereo unspecified)" quantity_measured=Potency reading="1 µM (active)"
compound="Clc1ccc(C(Cn2ccnc2)OCc2ccsc2Cl)c(Cl)c1 (stereo unspecified)" quantity_measured=Potency reading="2.82 µM (active)"
compound=Cc1cc(C2CCCCC2)n(O)c(=O)c1 quantity_measured=Potency reading="3.55 µM (active)"
compound=Cc1cc(=O)c2c(O)c3c(O)cc(=O)c4c3c3c(cc(O)c1c23)C(C)(C)C=4O quantity_measured=Potency reading="1 µM (active)"

# credit: PubChem BioAssay (NCATS)
